# Tested on: LOX IMVI
# assay.procedure: NCI tumour cell line growth inhibition, 48 h
Activity calls are given as the source filed them. Rule as the data show it: active = GI50 up to about 1.1 µM and inactive = higher.
Outcomes: active, inactive

[[record]]
compound = "O=C(Nc1ccc(Cl)cc1)[C-](C(=O)c1ccc(Br)cc1)[n+]1cccc(-c2ccc(Cl)cc2)n1"
answer_label = "inactive"

[[record]]
compound = "COC1CC(COCc2ccccc2)CC(OC)O1 (stereo not given)"
answer_label = "inactive"

[[record]]
compound = "CC1OC1C(=O)C1(O)C(C)C(O)C23OC2(C(O)c2c(O)cccc2C3=O)C1O (stereo not given) [CERVICARCIN]"
answer_label = "active"

[[record]]
compound = "CC1=[N+]([O-])C2(CCCC2)N(O)C1(C)C"
answer_label = "inactive"

[[record]]
compound = "Cc1nc2c(Cl)cc(Cl)cc2c2c1CCO2"
answer_label = "inactive"

[[record]]
compound = "CCOC(=O)NC(=O)c1cn(CCN2CCNCC2)c(=O)[nH]c1=O"
answer_label = "inactive"

[[record]]
compound = "COc1ccc2c3c1O[C@H]1C[C@@H](O)C=C[C@@]31CCN(C)C2 [GALANTAMINE]"
answer_label = "inactive"

[[record]]
compound = "CCOC(=O)C1=C(O)C(=O)c2cc(OC)ccc2C1=O"
answer_label = "inactive"

[[record]]
compound = "COc1cc2c(/C=C3/C(=O)Nc4ccc(O)cc43)c(Cl)[nH]c2cc1C"
answer_label = "active"

[[record]]
compound = "COC(=O)C(NC(=O)c1ccccc1)C(c1ccc(Cl)cc1)P(=O)(OC)OC (stereo not given)"
answer_label = "inactive"

